What raw data 2 was measured for each of the following?
target: UniProt:P10636; experiment: MCE Phenols Library screening, tau biosensor cell seeding assay (AvZ); type: cell-based; conditions: raw puncta, replicate 2
Sequence (P10636 623-695 limits assumed): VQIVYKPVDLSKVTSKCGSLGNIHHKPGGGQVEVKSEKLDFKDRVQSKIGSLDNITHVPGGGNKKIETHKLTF

Study these solved cases before continuing.
{"compound": "COc1cc2ccc(=O)oc2c(O[C@@H]2O[C@H](CO)[C@@H](O)[C@H](O)[C@H]2O)c1O", "study_target": "UniProt:P10636", "raw data 2": 5628.78}
{"compound": "OCC(O)c1ccc(O)c(O)c1 (stereo not shown) [4-(1,2-Dihydroxyethyl)benzene-1,2-diol]", "study_target": "UniProt:P10636", "raw data 2": 12320.1}
{"compound": "COc1cc(CO)ccc1O", "study_target": "UniProt:P10636", "raw data 2": 4900.36}
{"compound": "COc1cc(CNC(=O)CCCC/C=C/C(C)C)ccc1O [Capsaicin, reference compound]", "study_target": "UniProt:P10636", "raw data 2": 5705.75}
{"compound": "COc1cc(-c2oc3cc(OC)c(OC)c(O)c3c(=O)c2OC)ccc1O", "study_target": "UniProt:P10636", "raw data 2": 3165.82}

For each entry beneath this line, provide reported raw data 2.
1. O=c1c(-c2ccc(O)cc2)coc2c([C@@H]3O[C@H](CO[C@@H]4OC[C@@H](O)[C@H](O)[C@H]4O)[C@@H](O)[C@H](O)[C@H]3O)c(O)ccc12 [Puerarin 6''-O-Xyloside]
2. CC1OC(OCC2OC(Oc3c(-c4ccc(O)cc4)oc4cc(OC5OC(C)C(O)C(O)C5O)cc(O)c4c3=O)C(O)C(O)C2O)C(O)C(O)C1O (stereo not shown)
3. COC(=O)/C=C/c1ccc(O)c(O)c1 [Methyl caffeate]
4. CC=C1[C@H](O[C@@H]2O[C@H](CO)[C@@H](O)[C@H](O)[C@H]2O)OC=C(C(=O)OC)[C@H]1CC(=O)OC[C@H]1O[C@@H](OCCc2ccc(O)cc2)[C@H](O)[C@@H](O)[C@@H]1O (stereo in doubt) [Specneuzhenide]

Output:
1: 3498.14; 2: 3766.89; 3: 9737.92; 4: 13454.5

For each entry beneath this line, provide reported raw data 2.
1. O=C(O)c1ccc(O)c(O)c1O [2,3,4-Trihydroxybenzoic acid]
2. COc1c(O[C@@H]2O[C@H](C(=O)O)[C@@H](O)[C@H](O)[C@H]2O)cc(O)c2c(=O)cc(-c3ccccc3)oc12 [Wogonoside]
3. O=C(/C=C/c1ccc(O)cc1)c1ccccc1 [4-Hydroxychalcone]

Output:
1: 8597.33; 2: 4690.87; 3: 11774.3

For each entry beneath this line, provide reported raw data 2.
1. Cc1cccc(O)c1O
2. COc1ccc(-c2cc(=O)c3c(O)c(OC)c(O)c(OC)c3o2)cc1
3. COc1cc(CNC(=O)CCCCCC(C)C)ccc1O [Nordihydrocapsaicin]
4. COc1cc2c(cc1O)C[C@H]1c3cc(O)c(OC)cc3CC[N@@+]1(C)C2.[Cl-] [Phellodendrine (chloride)]

Output:
[8676.12, 11608.9, 5477.91, 5506.25]
